Test system: Plasmodium berghei
Experiment: Luciferase/luciferin-expressing antifolate-resistant parasites were used to infect a culture of HepG2 cells that were pre-incubated with compounds. Infected hepatocytes emit light due to the luciferase reaction. Assay results are presented as the percent inhibition of light emission compared to control. […]
Type: functional
Settings: sporozoite, FFLUC_HILL_SLOPE 10.5, FFLUC_R_SQUARED 0.0508, HEPG2TOX_HILL_SLOPE 1.91, HEPG2TOX_R_SQUARED 0.922, PBLUC_HILL_SLOPE 2.28, PBLUC_R_SQUARED 0.661, read-out: LUCIFERASE INFECTION ASSAY - IC50
readout-label: IC50 (µM)
Lab book: enter the figure in µM, no units written.

// IC50 lookup, compound = N#Cc1ccc(S(=O)(=O)Nc2cc(C(F)(F)F)cc(C(F)(F)F)c2)c(Cl)c1 , result: 2.09

====

Test system: Plasmodium berghei
Test: Luciferase/luciferin-expressing antifolate-resistant parasites were used to infect a culture of HepG2 cells that were pre-incubated with compounds. Infected hepatocytes emit light due to the luciferase reaction. Assay results are presented as the percent inhibition of light emission compared to control. […]
Type: functional
Settings: sporozoite, HEPG2TOX_HILL_SLOPE 0.764, HEPG2TOX_R_SQUARED 0.704, PBLUC_HILL_SLOPE 15.6, PBLUC_R_SQUARED 0.531, read-out: LUCIFERASE INFECTION ASSAY - IC50
readout-label: pIC50
# pIC50 is unitless: minus log10 of the molar concentration; print number only

O=C(Nc1ccccc1Oc1ccccc1Cl)c1cc2ccccc2c(=O)[nH]1 on Plasmodium berghei gives pIC50 = 5.96

====

Test system: Plasmodium berghei
Assay: Luciferase/luciferin-expressing antifolate-resistant parasites were used to infect a culture of HepG2 cells that were pre-incubated with compounds. Infected hepatocytes emit light due to the luciferase reaction. Assay results are presented as the percent inhibition of light emission compared to control. […]
Assay type: functional
Conditions: sporozoite, read-out: LUCIFERASE INFECTION ASSAY - IC90
readout-label: IC90 (µM)
Lab book: enter the figure in µM, no units written.

Cc1cc(=O)oc2cc(OCC(=O)OCC(=O)c3c(-c4ccccc4)[nH]c4ccccc34)ccc12
7.83
O=C1Cn2c(c(-c3nc4ccccc4[nH]3)c(=O)c3ccccc32)N1
9.39

CS(=O)(=O)Nc1cccc(-c2cnc3ccc(Cc4ccc(F)cc4)nn23)c1 on Plasmodium berghei gives IC90 = 5.12

CC(OC(=O)c1cc2sc3ccccc3c2s1)C(=O)N1CCNC1=O (stereo not given) on Plasmodium berghei gives IC90 = 9.91

====

Listed below: IC90 values for each entry.
System: Plasmodium berghei
Assay: Luciferase/luciferin-expressing antifolate-resistant parasites were used to infect a culture of HepG2 cells that were pre-incubated with compounds. Infected hepatocytes emit light due to the luciferase reaction. Assay results are presented as the percent inhibition of light emission compared to control. […]
Assay type: functional
Details: sporozoite, read-out: LUCIFERASE INFECTION ASSAY - IC90

Would you please look over these solved cases?
Cc1nc(CSCC(=O)Nc2nc(-c3ccccn3)cs2)cs1
> 10 µM
Cc1cc(Oc2ccc(C(F)(F)F)cc2N=CC(C#N)C#N)cc(C)c1Cl
> 8.42 µM
Cc1ccc(S(=O)(=O)N2Cc3ccccc3C(C)CC23CCCCC3)cc1 (stereo not given)
> 8.6 µM
NNc1nc(C(F)(F)F)nc2c1cnn2Cc1ccccc1
> 10 µM
CCCCNC(=O)c1c(NC(=O)c2cccc(C(F)(F)F)c2)nc2ccc(C)cn12
1 µM
CCOc1cc2cc(C(=O)c3cc(C)ccc3O)cnc2cc1OC
9.38 µM
CS(=O)(=O)C(C#N)=Cc1ccccc1OCc1c(Cl)cccc1Cl
> 8.63 µM
CC(CN1CCC2(CC1)C(=O)N(Cc1ccccn1)C(=O)N2Cc1ccccc1)c1ccccc1 (stereo not given)
> 7.04 µM

NCc1cccc(-c2cc(-c3cc(C(F)(F)F)cc(C(F)(F)F)c3)cnc2N)c1 on Plasmodium berghei gives IC90 = > 8.02 µM

CCCn1c(C)cc(C(=O)CN(C)S(=O)(=O)c2ccc(Cl)cc2)c1C on Plasmodium berghei gives IC90 = > 10 µM
